# credit: patent US12344595B2

- assayed-system: human Nav1.8 (Homo sapiens (Human))
- Sequence (Q9Y5Y9 whole entry): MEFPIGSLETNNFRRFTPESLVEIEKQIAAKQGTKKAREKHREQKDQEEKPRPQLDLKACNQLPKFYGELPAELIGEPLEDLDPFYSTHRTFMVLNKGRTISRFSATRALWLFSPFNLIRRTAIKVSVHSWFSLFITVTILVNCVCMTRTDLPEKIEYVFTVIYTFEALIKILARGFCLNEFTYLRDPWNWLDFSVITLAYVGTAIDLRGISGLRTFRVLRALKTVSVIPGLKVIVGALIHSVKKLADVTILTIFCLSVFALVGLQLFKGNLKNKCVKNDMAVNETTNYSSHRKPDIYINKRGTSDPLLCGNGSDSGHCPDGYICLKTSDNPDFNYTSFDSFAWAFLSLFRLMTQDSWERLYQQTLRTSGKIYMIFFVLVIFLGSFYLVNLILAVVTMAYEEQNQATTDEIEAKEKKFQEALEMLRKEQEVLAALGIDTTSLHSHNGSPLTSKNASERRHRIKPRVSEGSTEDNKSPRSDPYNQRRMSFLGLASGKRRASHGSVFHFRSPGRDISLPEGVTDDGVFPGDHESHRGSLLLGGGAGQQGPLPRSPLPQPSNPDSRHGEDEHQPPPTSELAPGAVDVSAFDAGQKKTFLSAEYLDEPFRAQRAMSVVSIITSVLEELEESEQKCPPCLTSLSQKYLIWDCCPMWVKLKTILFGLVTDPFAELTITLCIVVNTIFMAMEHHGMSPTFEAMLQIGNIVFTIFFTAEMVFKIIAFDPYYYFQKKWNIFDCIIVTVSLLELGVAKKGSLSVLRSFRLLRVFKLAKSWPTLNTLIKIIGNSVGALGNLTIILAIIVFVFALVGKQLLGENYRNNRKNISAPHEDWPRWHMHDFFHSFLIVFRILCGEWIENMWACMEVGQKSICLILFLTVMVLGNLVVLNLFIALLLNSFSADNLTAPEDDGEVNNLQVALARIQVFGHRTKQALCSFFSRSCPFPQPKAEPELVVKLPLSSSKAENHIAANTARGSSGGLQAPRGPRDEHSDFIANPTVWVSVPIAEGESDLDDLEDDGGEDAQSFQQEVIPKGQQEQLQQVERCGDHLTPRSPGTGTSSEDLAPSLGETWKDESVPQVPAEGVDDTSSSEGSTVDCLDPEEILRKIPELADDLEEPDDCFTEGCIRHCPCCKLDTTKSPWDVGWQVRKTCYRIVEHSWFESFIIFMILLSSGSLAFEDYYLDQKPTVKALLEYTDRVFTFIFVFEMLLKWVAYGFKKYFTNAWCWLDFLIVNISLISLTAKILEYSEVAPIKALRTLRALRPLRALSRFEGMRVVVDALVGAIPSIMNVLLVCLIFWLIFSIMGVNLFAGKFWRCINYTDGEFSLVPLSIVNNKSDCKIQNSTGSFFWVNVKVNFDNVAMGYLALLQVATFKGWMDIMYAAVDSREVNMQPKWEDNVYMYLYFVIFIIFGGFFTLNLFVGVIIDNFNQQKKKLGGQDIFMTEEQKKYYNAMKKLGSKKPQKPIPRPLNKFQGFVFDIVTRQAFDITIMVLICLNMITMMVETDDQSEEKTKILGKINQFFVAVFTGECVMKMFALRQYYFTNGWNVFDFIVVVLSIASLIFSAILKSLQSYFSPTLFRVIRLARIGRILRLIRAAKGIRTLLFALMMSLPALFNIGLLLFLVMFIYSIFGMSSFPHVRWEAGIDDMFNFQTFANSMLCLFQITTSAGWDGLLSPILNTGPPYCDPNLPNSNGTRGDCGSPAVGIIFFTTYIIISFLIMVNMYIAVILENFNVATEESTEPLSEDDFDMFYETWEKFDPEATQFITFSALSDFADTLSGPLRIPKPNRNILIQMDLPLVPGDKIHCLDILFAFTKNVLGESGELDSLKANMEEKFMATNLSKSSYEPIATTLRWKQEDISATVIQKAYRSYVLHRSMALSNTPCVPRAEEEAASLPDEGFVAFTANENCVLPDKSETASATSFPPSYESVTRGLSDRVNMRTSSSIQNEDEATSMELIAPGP
- measurement-notes: Nav1.8 Qube automated patch-clamp assay
- stated-conditions: Nav1.8 Qube Assay; human Nav1.8 channels stably expressed in HEK 293 cells

given-smiles	IC50 / nM
NS(=O)(=O)c1cccc(NC(=O)c2cc(C(F)(F)F)cnc2N2C[C@@H]3[C@H](C2)C(F)(F)C3(F)F)c1	21
CC(C)c1cnc(N2CCCC(F)(F)CC2)c(C(=O)Nc2cccc(S(N)(=O)=O)c2)c1	7.1
NS(=O)(=O)c1cccc(NC(=O)c2cc(C3CC3)cnc2N2CCCC(F)(F)CC2)c1	7.3
NS(=O)(=O)c1cccc(NC(=O)c2cc(C(F)(F)F)cnc2N2CCCC3(CC2)CC3)c1	10
